targetOrTestSystem: T1, TRAIL (human, UniProt P50591 114-281)
T1 construct: also called TNF-related apoptosis inducing ligand
T1 sequence (P50591 114-281 limits assumed): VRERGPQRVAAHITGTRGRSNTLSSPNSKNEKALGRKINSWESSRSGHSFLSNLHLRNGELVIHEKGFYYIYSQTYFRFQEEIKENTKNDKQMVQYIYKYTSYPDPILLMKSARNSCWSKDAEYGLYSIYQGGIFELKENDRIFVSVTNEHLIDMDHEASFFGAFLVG
assayComment: phage ELISA

binder	binding result
I008C03 (scFv) scFv: QMQLVRSGGGVVQPGRSLRLSCAASGFTFSSYGMHWVRQAPGKGLEWVSVTYSGGNTNYADSVRGRFTISRDNSKNTLYLQMNSLRAEDTAVYYCAREGSYDILTGYYVGVGRMDVWGKGTLVTVSSGGGGSGGGGSGGGGSSELTQDPAVSVALGQTVRITCQGDSLRSYYTNWFQQKPGQAPLLVVYAKNKRPSGIPDRFSGSSSGNTASLTITGAQAEDEADYYCNSRDSSGNHVVFGGGTKLTVLG	no binding
I008A11 (scFv) scFv: QVQLQQSGPGLVKPSQILSLTCAISGDSVASNGAAWNWIRQSPSRGLEWLGRTYYRSKWYVDYAVSVKSRITINPDTSKNQFSLQLNSVTPEDTAVYYCARDRYDILTGYYYYGMDVWGQGTMVTVSSGGGGSGGGGSGGGGSQSALTQPASVSGSRGQSITISCTGTTGDVGGYDYVSWYQQHPGKAPKLLIYGNSNRPSGVPDRFSASKSGNTASLTISGLQAEDEADYFCSTYAPPGIIMFGGGTKLTVLG	no binding
I031G08 (scFv) scFv: QVQLVQSGAEVKKPGSSVKVSCRASGGSFIDDSINWLRQAPGQGLEWVGGTIPLANRANYAQKFRDRATITADELTATVFLELTSLRSDDTALYYCARSSPPKWYDALTGHSSYHSAMDVWGRGTLVTVSSGGGGSGGGGSGGGGSAQSVLTQPPSASGTPGQRVTISCSGTNSNIGGNTVNWYQQLPGTAPRLLIYSNNQRPSGVPDRFSGSKSGTSASLAISGLQSEDEADYYCAARDDRLNAHVVFGGGTKVTVLG	no binding
